Field Ki: reported value for Prostacyclin receptor (Homo sapiens, UniProt P43119); entries drawn from several documents.

1) Cc1cc(OCC2Oc3ccccc3O2)cc(C)c1C(=O)Nc1cc(CC(=O)O)ccc1Cl	> 10 µM

# input Quick one: Ki for Cc1ccc(OCc2ccccc2)c(C/C=C/c2ccccc2/C=C/C(=O)O)c1 ?
# output > 0.5 µM

# input Requested field: Ki. Item: Cc1sc(C)c(C(=O)N[C@@H](C)c2ccc(C(=O)O)cc2)c1Cc1cccc(Cl)c1
# output > 2.23 µM

# input Entry under review: CC(O)c1cc(S(C)(=O)=O)cc2c3c(n(Cc4ccc(Cl)cc4)c12)[C@@H](CC(=O)O)CC3 (some centres undefined) . Reported Ki?
# output > 20 µM
